- System: Escherichia coli
- assayOverview: Antimicrobial activity against Escherichia coli MTCC 443 assessed as growth inhibition after 24 hr by NCCLS broth microdilution method
- Format: functional
- reportedConditions: MTCC 443, 24 h
measuredEndpoint: MIC (µg/mL)
Lab book: enter the figure in µg/mL, no units written.

compound	studySystem	MIC (µg/mL)
C=CCn1c(=O)c(C2C3=C(CC(C)(C)CC3=O)Oc3cc(C)oc(=O)c32)cc2ccccc21 (stereo not drawn)	Escherichia coli	100

q: Param readout= MIC; system= Escherichia coli; entry= C=CCn1c(=O)c(C2C3=C(CC(C)(C)CC3=O)Oc3c2c(=O)oc2ccccc32)cc2cc(Cl)ccc21 (stereo not drawn) ; returns value.
a: 100

q: Param readout= MIC; system= Escherichia coli; entry= C=CCn1c(=O)c(C2C3=C(CCCC3=O)Oc3c2c(=O)oc2ccccc32)cc2cc(OC)ccc21 (stereo not drawn) ; returns value.
a: 100

q: Param readout= MIC; system= Escherichia coli; entry= C=CCn1c(=O)c(C2C3=C(CCCC3=O)Oc3cc(C)oc(=O)c32)cc2ccccc21 (stereo not drawn) ; returns value.
a: 125

q: Param readout= MIC; system= Escherichia coli; entry= CC1(C)S[C@@H]2[C@H](NC(=O)[C@H](N)c3ccccc3)C(=O)N2[C@H]1C(=O)O ; returns value.
a: 100

q: Param readout= MIC; system= Escherichia coli; entry= C=CCn1c(=O)c(C2C3=C(CCCC3=O)Oc3c2c(=O)oc2ccccc32)cc2cc(Cl)ccc21 (stereo not drawn) ; returns value.
a: 200

q: Param readout= MIC; system= Escherichia coli; entry= O=C(O)c1cn(C2CC2)c2cc(N3CCNCC3)c(F)cc2c1=O ; returns value.
a: 25

q: Param readout= MIC; system= Escherichia coli; entry= O=C(N[C@H](CO)[C@H](O)c1ccc([N+](=O)[O-])cc1)C(Cl)Cl ; returns value.
a: 50

* * *

Recorded MIC values for a group of compounds are listed next.
- Tested on: Escherichia coli
- assayOverview: Antimicrobial activity against Escherichia coli MTCC 443 assessed as growth inhibition after 24 hr by NCCLS broth microdilution method
- Format: functional
- reportedConditions: MTCC 443, 24 h
Lab book: enter the figure in µg/mL, no units written.

compound	MIC [µg/mL]
C=CCn1c(=O)c(C2C3=C(CC(C)(C)CC3=O)Oc3cc(C)oc(=O)c32)cc2cc(C)ccc21 (stereo not drawn)	500

q: Look at this compound and give its reported MIC. C=CCn1c(=O)c(C2C3=C(CCCC3=O)Oc3cc(C)oc(=O)c32)cc2cc(OC)ccc21 (stereo not drawn)
a: 125

q: Look at this compound and give its reported MIC. C=CCn1c(=O)c(C2C3=C(CCCC3=O)Oc3cc(C)oc(=O)c32)cc2cc(C)ccc21 (stereo not drawn)
a: 125

* * *

- System: Escherichia coli
- assayOverview: Antimicrobial activity against Escherichia coli MTCC 443 assessed as growth inhibition after 24 hr by NCCLS broth microdilution method
- Type: functional
- reportedConditions: MTCC 443, 24 h
measuredEndpoint: MIC (µg/mL)
Lab book: enter the figure in µg/mL, no units written.

compound	MIC [µg/mL]
C=CCn1c(=O)c(C2C3=C(CC(C)(C)CC3=O)Oc3c2c(=O)oc2ccccc32)cc2cc(C)ccc21 (stereo not drawn)	200
C=CCn1c(=O)c(C2C3=C(CC(C)(C)CC3=O)Oc3c2c(=O)oc2ccccc32)cc2ccccc21 (stereo not drawn)	500
C=CCn1c(=O)c(C2C3=C(CCCC3=O)Oc3cc(C)oc(=O)c32)cc2cc(Cl)ccc21 (stereo not drawn)	500
C=CCn1c(=O)c(C2C3=C(CCCC3=O)Oc3c2c(=O)oc2ccccc32)cc2ccccc21 (stereo not drawn)	62.5
C=CCn1c(=O)c(C2C3=C(CC(C)(C)CC3=O)Oc3cc(C)oc(=O)c32)cc2cc(OC)ccc21 (stereo not drawn)	500

q: Look at this compound and give its reported MIC. C=CCn1c(=O)c(C2C3=C(CCCC3=O)Oc3c2c(=O)oc2ccccc32)cc2cc(C)ccc21 (stereo not drawn)
a: 20

q: Look at this compound and give its reported MIC. C=CCn1c(=O)c(C2C3=C(CC(C)(C)CC3=O)Oc3cc(C)oc(=O)c32)cc2cc(Cl)ccc21 (stereo not drawn)
a: 250

q: Look at this compound and give its reported MIC. C=CCn1c(=O)c(C2C3=C(CC(C)(C)CC3=O)Oc3c2c(=O)oc2ccccc32)cc2cc(OC)ccc21 (stereo not drawn)
a: 250
